experimental_details: yeast display, Sf9 membrane polyspecificity reagent, FACS + sequencing; frameworks hold sequencing errors

{"columns": ["sequence_text", "polyreactivity (PSR sort gate)"],
 "data": [
  ["QDQLVETGVGLVQAGGSLLLSCAPSAITFRGYAMGWYRQAPGKEREYVAAITSGSSTYYADSVKGRFTISRDNAKNTVYLQMNSLKPEDTAVYYCAAERTKSFKLTRPGSMDYWGQGTQVTVSS", "low polyreactivity"],
  ["QVQLVESGGGLVQAGGSLRLSCAASGNTFNNNAMGWYRQAPGKERELVAITGDGGSTYYADSVKGRFTISRDNAKNTVYLQMNSLKPEDTAVYYCAADYLYRYQTMGYWGQGTQVTVSS", "low polyreactivity"],
  ["QDQLGDSGGGLVQAGGSLRLSCAASGFTFGKYAMGWYRQAPGKERELVAAISWSGASTYYADSVKGRFTISRDNAMNTVYLQMNSLKAEDTALYYCAKRDYSYPWFRDYYYWGQGTLVTVSS", "low polyreactivity"],
  ["QDQLVESGGGFVQAGGSLRLSCAASGSIFLINAMGWYRQAPGKERELVAAISWRGGTTYYADSVKGRFTISRDNAKNSVYLQLNSLKPEDTAVYYCAAYGGRFRGPTRYDYWVQGTQVTVSS", "high polyreactivity"],
  ["QVQLVESGGGLVKAGGSLRLSCAASGRIDWYYAMGLYRQAPRKERDLVAAISRSGGTTYYADSVKGRFTISRDNAKNSVFLQMNSLQPEDTEVYYCAAVFHAYTGYEAWEEYEYWGQGTQVTVSA", "high polyreactivity"],
  ["QVQLVESGGGLVQAGGSLRLSCAASGSTSGPYAMGWYRTAPGKERELVATISWIGDRTYYADSVKGRFTISRDNAKNTIYLQMNSLKPEDTAVYYCNDDYRGYANLEGDYWGQGTQVTVSS", "low polyreactivity"],
  ["QVQLVESGGGLVQAGGSLRLSCAASGRIFFIYAMGWYRQAPGKERELVAAISYDSGSTYYADSVKGRFTISRDNAKNTVYLQMNSLKPEDTAVYYCAAEWGLVIYSTYGYDYWGQGTQVTVSS", "low polyreactivity"],
  ["QFQLVESGGGLVQAGGSLRLSCAASGSSFTVYAMGWYRQAPGKETELVAAISYVGGSTYYAASVKGRFTISRDNAKNTVYLQMNSLKPEDTAVYYCAADPYYSYGYYHAHGRDVGYWGQGTQVTVSS", "low polyreactivity"],
  ["QVQLVESGGGLVQAGGSLRLICAASGITFVTYAMGWYRQAPGKERELVAAISRSGGRTYYADSVKGRFTISRDNAKNTVYLQMNSLKPEDTSVYYCAAERKNKYDYWGQGTQVTVSS", "high polyreactivity"],
  ["QVQLVESGGGLVQAGGSLRLSCAASGSIFNLYAMGWYRQAPGKEREMVAAISYSTGSTYYADSVKGRFTISRDNAKNTVYLQMTSLKPEDTAVYYCNAQEGILGWVLYDYWGQGTQVTVSS", "high polyreactivity"],
  ["QVQIVESGGGLVQAGGSLRLSCAASGSIFIFYAMGWYRQAPGKERELVADITSDGASTYYADSVKGRFTISRDNAKNTVYLQMNSLKPEDTAVYYCAADYIDSSAYDYWGQGTQVTVSS", "low polyreactivity"]
]}

###

experimental_details: yeast display, Sf9 membrane polyspecificity reagent, FACS + sequencing; frameworks hold sequencing errors

{"columns": ["sequence_text", "polyreactivity (PSR sort gate)"],
 "data": [
  ["QVQLQESGGGLVQAGGSLRLICAASGTIFSARFMGWYRQAPGKERELVATITDGGNTNHADSVKGRFTISRDNAKNTVYLKMYSLKPEDAAVYYCAAGEVDNDTLLFWGQGSQVTVSS", "low polyreactivity"],
  ["QVQLVESGGGLVQAGGSLRLSCAASGRTFSGYAMGWYRQAPGKERELVAGITWNGGRTYYADSVKGRFTISRDNAKNTVSLQMNSLKPEDTAVYYCNKLGAVYPKYGYWGQGTQVTVSS", "high polyreactivity"],
  ["QVQLVESGGGLVQAGGSLRLSCAASGFIFIFYAMGWYRQAPGKERELVAGISWSSSSTYYADSVKGRFTISRDNAKNTVYLQMNSLKPEDTAVYYCAKDGRSVSGEYDYWGQGTQVTVSS", "low polyreactivity"],
  ["QLQLVESGGCLVQAGGSLRLSCAASGIIFVVNDMGWYRQAPGNARELVADISDSGGSTNYADSVKGRFTISRDNAKNSVYLQMNSLKPEDTAVYYCAADSADPTEYDYWGQGTQVTLSS", "low polyreactivity"],
  ["QVQLVESGGGLVQAGGSLRLSCAASGSTLDVYDMGWYRKAPGKEREFVATISFSVGSTDYADSVKGRFTISRDNAKNTVYLQMNSLKPEDTAVYYCAADVSEWSNQYFDSYLRMDYWGQGTQVTVSS", "low polyreactivity"],
  ["QVQLVDSGGGLVQAGGSLRLSCAASGITFVFYAMGWYRQAPGKERELVAAISSSGGSTYYADSVKGRFTISRDNAKNTVYLQMNSLKPEDTAVYYCNAKVFSYQGAVRYDYWGQGTQVTVSS", "high polyreactivity"],
  ["QVQLVESGGGLVQAGGSLRLICAASGRIFASYTMGWYRQAPGKERELVAGISRRGGSTYYADSVKGRFTISRDNAKNTVYLQMNSLKPEDTAVYYCAAVSSVFSVRYDYWGQGTQVTVSS", "high polyreactivity"],
  ["QVQLVESGGGLVQAGGSLRLSCAASGSNSFLYTMRWYRQAPGKERELVAAITGSTASTYYADSVKGRFTISRDNAKNTVYLQMNSLKPEDSAVYYWAAYWYAEGYWVSRDYWGQGTQVTVSS", "low polyreactivity"],
  ["QVQLVESGGGLVQAGGSLRLSCAASGLIFSRYTMGWYRQAPGKERELVAAISLGGGRTYYADSVKGRFTISRDNAKNTVYLQMNSLKPEDTAVYYCAATRYYSSDYWGQGTQVTVSS", "low polyreactivity"],
  ["QVQLVESGGGLVQAGGSLRLSCAASGRIFGYYAMGWYRQAPGKERELVARISSSGGSTYYADSVKGRFTISRDNAKNTVYLQMNSLKPEDTAVYYCNTASNRYPGWRAEFDYWGQGTQVTVSS", "low polyreactivity"],
  ["QVQHVESGGGLVQAGGSLRLSCAASGFIFRNYAMGWYRQAPGKERELVAAISSRGGSTYYADSVKGRFTISRDNAKNTVYLQMNRLKPEVTAVYYCARRYFYTYGYWGQGSQVTVSS", "high polyreactivity"]
]}

###

experimental_details: yeast display, Sf9 membrane polyspecificity reagent, FACS + sequencing; frameworks hold sequencing errors
reported_endpoint: polyreactivity (PSR sort gate)

{"columns": ["sequence_text", "value_measured"],
 "data": [
  ["QVQLVESGGGLVQAGGSLRLSCAASGGTFVYYAMGWYRQAPGKERELVAAITSRGTSTYYADSVKGRFTISRDNAKNTVYLQMNSLKPEDTAVYYCAAGTPRGILRNSSYNYWGQGTQVTVSS", "high polyreactivity"],
  ["QVQLVESGGGLVQAGGSLRLSCAASGSIFNYNAMGWYRQAPGKERELVAAITWSGGTTYYADSVKGRFTISRDNAKNTVYLQMNSLIPEDTAVYYCAAEWWDGSYPLYEYYYWGQGTQVNVSS", "high polyreactivity"],
  ["QVQLVESGGGLVQAGGSLRLSCAASGNIFGLNSMGWYRQAPGIDRELVSAISKSGGSTFYADSVKGRFKISRDNAKNTVYLQMNSLKPEDTAVYYCAARWNGARPNHTYGYWGQGTQVTVSS", "high polyreactivity"],
  ["QVQLVESGGGLVQAGGSLRLSCAASGSIYGYTMGWNRQAPWKERELVAAINRRADRTYYADSVKGRFTISRDNAKNTVYLQMNSLKPEDTAVYYCNKGGWYTLGYWGQGTQVTVSS", "high polyreactivity"],
  ["QVQLVESGGGLVQAGGSLRLSCAASGFTFYNYAMGWYRPAPGKERELVAAITKSGSRTYYADSVKGRFTISRDNAKNTVYLQMNSLKPEDTAVYYCARDYTVRGYDYWGQGTQVTVSS", "high polyreactivity"],
  ["QVQLVETGGGLVQAGGSLRLSCAASGSIFSGNAMGRSRPAPGKERELVGAITGSGGSTYYADSVKGRFTITRDNAKNTVYLQMNSLKPVDTAVYYCAVLFRTFYYWGQGTQVTVSS", "high polyreactivity"],
  ["QVQLVESGGGLVQAGGSLRLSCAASGRIIPKYAMGWYRQAPGKERELVAAISSSGGSTYYADSVKGRFTISRDNAKNTVYLQINSLKPEDTAVYYCNVDKATRYRYPGFDYWGQGTQVTVSS", "high polyreactivity"],
  ["QVQLVESGGGLVQAGGSLRLSCAASGRTFSGYAMGWYRQAPGKERELVASITYSGGSTYYADSVKGRFTISRDNAKNTVYLQMNSLKPEDTAVYYCNARSSGKGRSNAYYKGHGYWGQGTQVTVSS", "high polyreactivity"],
  ["QVQHVESGGGLVQAGGSLRLSCAASGQIYNQNAMGWYRQAPGKERELVAAISYRGGSTYYADSVKGRFTISRDNAKNTVYLQMNSLKPEDTADYYCAAARSGSGGKQFDHGFNYWGQGTQVTVSS", "high polyreactivity"],
  ["QVQLVESGGGLVQAGGSLRLSCAASGRTFAQYTMGWYRQAPGKERELVAGIDWSGGNTYYADSVKGRFTISRDNAKNTVYLQMNSLKPEDTAVYYCAAVPAFYNAWGEDYEYWGQGTQVTVSS", "low polyreactivity"],
  ["QVQLVESGGGLVQAGGSLRLSCAASGSIFTFYAMGWYRQAPGKERELVATINRIGGNTYYADSVKGRFTISRDNAKNTVYFQMNSLKPEDTAVYYCAADRSAWGSNWETQFDYWGQGTQVTVSS", "low polyreactivity"],
  ["QVQLVESGGGLVQAGGSLRLSCAAYGNIFHRNAMGWYRKAPGKESEVVAAISWSGGSTYYADSVKGRFTISRDNAKNTVYLQMNSLKPEDTAVYYCNAYYYYRFKQSHPGLRSYYWGQGTQVTVSS", "high polyreactivity"],
  ["QDQLVESGGGLVQAGGSLRLSCAASGFTFSVNAMGWYRQAPGKERELVAAITRGRSTSYADSVKGRFTISRDNAKNTVYLQKNSLKPEDTAVYYCAASYSGGTWSGYYYWGQGTQVTVSS", "high polyreactivity"],
  ["QVQLVESGGGLVQAGGSLRLSCAASGSITGLNAMGWYRHAPGKERELVAAIYRSGGRTYNADSVKGRFTISRDNAKNTVYLQMISLKPEDTAVYYCAAVTTWRLDYWGQGTQVTVSS", "high polyreactivity"],
  ["QVQLVESGGGLVQAGGSLRLSCAASGRTLPYNAMAWYRQAPGKESELVAAITWSGGRTYYADSVKGRFTISRDNAKNTVYLQMNSLKPEDTAVYYCAAGKSSYGKPKYYYWGQGTQVTVSS", "high polyreactivity"],
  ["QVQLVESGVGLVQAGGSLRLSCAASGSTFSAYTMGWYRQAPGKERELVAAIRFDGGRTYYADSVKGRFTISRDNAKNTVYLQMNSLKPEDTAVYYCRAWQSYSYDYSGQGTQVTVSS", "high polyreactivity"],
  ["QVQLVESGGGLVQAGGSLRLSCAASGRIIIRYAMGWYRQAPGKERELVAGISRRGGSTSYADSVKWRFTISRDNAKNTVYLQMNSLKPEDTAVYYCGADSQYKYDYWGQGTQVTVSS", "high polyreactivity"],
  ["QVQLVESGGGLVQAGGSLRLSCAASGSTFWSYTMGWYRQAPGKERELVAAIRFSGGSTYYADSVKGRFTISRDNAKNTVYLQMNSLKPEDTAVYYCAAGYYRRPYEYWGQGTQVTVSS", "low polyreactivity"],
  ["QVQLVESGGGLVQAGGSLRLSCAASGRTLLYYAMGWYRQAPGKERELVASISRGSSTNYADSVKGRFTISRDNAKNTVYLQMNSLKPEDTAVYWGQGTQVTVSS", "low polyreactivity"],
  ["QVQLVESGGGLVQAGGSLRLSCAASGRIFPYYTLGWYTQAPGKERELVATITTGGSTNYADSVKGRFTLSRDNAENTVYLKMNSLKPEDTAVYYCNNDGVVEVRFTGRQEYDYWGQGTQVTVSS", "low polyreactivity"],
  ["QVQLVESGGGLVQAGGSLRLSCAASGRTFYHYVMGWYRQEPGKERELVAAITSRGGSTYYADSVKGRFTISRDNAKNTVYLQMNSLKPEDTAVYYCAARLNYGNKYDYWGQGTQVTVSS", "high polyreactivity"]
]}
